Experiment: Hydrolytic stability of the APL prodrugs monitored by 31P-NMR
Format: physicochemical
Conditions: HEPES buffer with Triton X-100; pH 7.4; extrapolated from the experimental data; read-out: t1/2 (time needed for 50% hydrolysis) (converted)
Source text: Aqueous formulation of the APL prodrugs produces nanosized lipid aggregates that most likely enter cells through the endocytosis pathway. […] To get some information on the transformation of pro-APLs into APLs, we monitored the hydrolysis of these compounds over time, at pH 7.4 and 4.5, conditions that mimick the extracellular milieu and the environment of the late endosome, respectively. […]
Listed here: items and their measured half-life.
Answer format: numeric, days implied, no suffix.

compound	half-life, days
CCCCCCCCCCCCCCCCCCOP(=O)(OC1CC[N+](C)(C)CC1)OC(C)OC(=O)CCCCCCCCCCC.[Cl-] (centres unmarked)	3.5

Recorded half-life (compound CCCCCCCCCCCCCCCCOP(=O)(OCC[N+](C)(C)C)OC(C)OC(=O)CCCCCCCCCCC.[Cl-] (centres unmarked) ): 0.75

----------
System: H292 cells
Test: Cytotoxicity, MTT assay, H292
Format: cell-based, human
Details: Homo sapiens, NCI-H292, H292, 24 h at 37°C
Protocol: The cells were exposed for a 24-h period to increasing concentration of the pro-APLs, ranging from 500 nM to 1 mM, and cell viability was assessed using the MTT colorimetric assay (Mosmann, [1983]). […] After a 24-h incubation period at 37 °C, culture supernatant was removed, cells were carefully washed with PBS and MTT (100 µL, 0.5 mg/mL) in complete culture medium was added. […] Intensity of MTT reduction was then evaluated by measuring absorbance at 492 nm. […]
Would you mind sorting the entries by IC50 according to these classes? interval 1 (below 60 µM), interval 2 (60 µM to below 100 µM), interval 3 (100 µM or more)

Below are worked cases with known answers.
molecule	category label
CCCCCCCC/C=C\CCCCCCCCOP(=O)(OCCC[N+](C)(C)C)OCOC(=O)OCCCCCCCCCCCC.[Cl-] (stereo not drawn) [PC18:1]	interval 3
CCCCCCCCCCCCCCCCOP(=O)(OCCCCCCCCCCCC)OCC[N+](C)(C)C (stereo not drawn) [Compound M12]	interval 1
CCCCCCCCCCCCCCCCCCOP(=O)([O-])OC1CC[N+](C)(C)CC1 [Perifosine, reference compound]	interval 2
CCCCCCCCCCCCCCCCOP(=O)([O-])OCC[N+](C)(C)C [Miltefosine, reference compound]	interval 2
CCCCCCCCCCCCCCCCCCOP(=O)(OCCCCCCCCCCCC)OC1CC[N+](C)(C)CC1.[Cl-] (stereo not drawn) [Compound P12]	interval 2
CCCCCCCCCCCCCCCCOP(=O)(OCC[N+](C)(C)C)OCOC(=O)CCCCCCCCCCC.[Cl-] (stereo not drawn) [ME12]	interval 1

Enquiry: Bin this entry: CCCCCCCCCCCCCCCCCCOP(=O)(OC1CC[N+](C)(C)CC1)OC(C)OC(=O)CCCCCCCCCCC.[Cl-] (stereo not drawn) [P E^′12]
Return: interval 3

Enquiry: Bin this entry: CCCCCCCCCCCCCCCCCCOP(=O)(OCOC(=O)CCCCCCCCCCC)OC1CC[N+](C)(C)CC1.[Cl-] (stereo not drawn) [PE12]
Return: interval 3

----------
Assay: Hydrolytic stability of the APL prodrugs monitored by 31P-NMR
Type: physicochemical
Details: pH 7.4
Listed here: items and their measured H120 (hydrolysis rate after a 120-h incubation period).
Answer format: numeric, % implied, no suffix.

compound	display unit	meas value
CCCCCCCCCCCCCCCCCCOP(=O)(OC1CC[N+](C)(C)CC1)OC(C)OC(=O)CCCCCCCCCCC.[Cl-] (stereo not drawn)	%	60

Recorded H120 (hydrolysis rate after a 120-h incubation period) (compound CCCCCCCCCCCCCCCCOP(=O)(OCC[N+](C)(C)C)OCOC(=O)CCCCCCCCCCC.[Cl-] (stereo not drawn) ): 20

Recorded H120 (hydrolysis rate after a 120-h incubation period) (compound CCCCCCCCCCCCCCCCCCOP(=O)(OCCCCCCCCCCCC)OC1CC[N+](C)(C)CC1.[Cl-] (stereo not drawn) ): 0

Recorded H120 (hydrolysis rate after a 120-h incubation period) (compound CCCCCCCCCCCCCCCCCCOP(=O)(OCOC(=O)CCCCCCCCCCC)OC1CC[N+](C)(C)CC1.[Cl-] (stereo not drawn) ): 16

Recorded H120 (hydrolysis rate after a 120-h incubation period) (compound CCCCCCCCCCCCCCCCOP(=O)(OCC[N+](C)(C)C)OC(C)OC(=O)CCCCCCCCCCC.[Cl-] (stereo not drawn) ): 89

Recorded H120 (hydrolysis rate after a 120-h incubation period) (compound CCCCCCCCCCCCCCCCOP(=O)(OCCCCCCCCCCCC)OCC[N+](C)(C)C (stereo not drawn) ): 0

----------
Assay: CMC/CAC by pyrene fluorescent probe technique in ultrapure water
Format: physicochemical
Conditions: pyrene fluorescence
Lab note: anything with CMC (APLs) / CAC (pro-APLs) below 3 µM is marked True; values at 3 µM or higher are marked False.

compound	category label
CCCCCCCCCCCCCCCCOP(=O)([O-])OCC[N+](C)(C)C [Miltefosine, reference compound]	False
CCCCCCCCCCCCCCCCCCOP(=O)(OCCCCCCCCCCCC)OC1CC[N+](C)(C)CC1.[Cl-] (stereo not drawn)	True
CCCCCCCCCCCCCCCCCCOP(=O)(OCOC(=O)CCCCCCCCCCC)OC1CC[N+](C)(C)CC1.[Cl-] (stereo not drawn)	True
CCCCCCCCCCCCCCCCOP(=O)(OCC[N+](C)(C)C)OC(C)OC(=O)CCCCCCCCCCC.[Cl-] (stereo not drawn)	True
CCCCCCCCCCCCCCCCCCOP(=O)([O-])OC1CC[N+](C)(C)CC1 [Perifosine, reference compound]	False
CCCCCCCC/C=C\CCCCCCCCOP(=O)(OCCC[N+](C)(C)C)OCOC(=O)OCCCCCCCCCCCC.[Cl-] (stereo not drawn)	True
CCCCCCCCCCCCCCCCCCOP(=O)(OC1CC[N+](C)(C)CC1)OC(C)OC(=O)CCCCCCCCCCC.[Cl-] (stereo not drawn)	True
CCCCCCCCCCCCCCCCOP(=O)(OCCCCCCCCCCCC)OCC[N+](C)(C)C (stereo not drawn)	True

Enquiry: I'd appreciate it if you could check whether CCCCCCCCCCCCCCCCOP(=O)(OCC[N+](C)(C)C)OCOC(=O)CCCCCCCCCCC.[Cl-] (stereo not drawn) has CMC (APLs) / CAC (pro-APLs) smaller than 3 µM.
Return: False

----------
Test: Particle size and zeta potential of lipoplexes by DLS
Format: physicochemical
Details: lipoplexes with pCMV-Gluc, 25 °C, 5 % glucose, N/P 3, 1 molar equivalent of DOPE
metric name: Particle size of lipoplexes (nm)
Answer format: numeric, nm implied, no suffix.

Look over these answered cases.
compound	meas value
CCCCCCCCCCCCCCCCCCOP(=O)(OCCCCCCCCCCCC)OC1CC[N+](C)(C)CC1.[Cl-] (stereo not shown)	348
CCCCCCCCCCCCCCCCOP(=O)(OCC[N+](C)(C)C)OC(C)OC(=O)CCCCCCCCCCC.[Cl-] (stereo not shown)	86
CCCCCCCCCCCCCCCCOP(=O)(OCC[N+](C)(C)C)OCOC(=O)CCCCCCCCCCC.[Cl-] (stereo not shown)	178
CCCCCCCCCCCCCCCCCCOP(=O)(OC1CC[N+](C)(C)CC1)OC(C)OC(=O)CCCCCCCCCCC.[Cl-] (stereo not shown)	610
CCCCCCCCCCCCCCCCCCOP(=O)(OCOC(=O)CCCCCCCCCCC)OC1CC[N+](C)(C)CC1.[Cl-] (stereo not shown)	330
CCCCCCCCCCCCCCCCOP(=O)(OCCCCCCCCCCCC)OCC[N+](C)(C)C (stereo not shown)	121

Okay, now this compound:
Recorded Particle size of lipoplexes (compound CCCCCCCC/C=C\CCCCCCCCOP(=O)(OCCC[N+](C)(C)C)OCOC(=O)OCCCCCCCCCCCC.[Cl-] (stereo not shown) ): 489

----------
Assay: Hydrolytic stability of the APL prodrugs monitored by 31P-NMR
Type: physicochemical
Conditions: pH 4.5
Lab note: anything with H120 (hydrolysis rate after a 120-h incubation period) below 2% is marked TRUE; values at 2% or higher are marked FALSE.

Below are worked cases with known answers.
compound	category label
CCCCCCCCCCCCCCCCOP(=O)(OCC[N+](C)(C)C)OCOC(=O)CCCCCCCCCCC.[Cl-] (stereo not drawn) [ME12]	FALSE
CCCCCCCCCCCCCCCCCCOP(=O)(OC1CC[N+](C)(C)CC1)OC(C)OC(=O)CCCCCCCCCCC.[Cl-] (stereo not drawn) [P E^′12]	FALSE
CCCCCCCCCCCCCCCCCCOP(=O)(OCCCCCCCCCCCC)OC1CC[N+](C)(C)CC1.[Cl-] (stereo not drawn) [Compound P12]	TRUE
CCCCCCCCCCCCCCCCOP(=O)(OCC[N+](C)(C)C)OC(C)OC(=O)CCCCCCCCCCC.[Cl-] (stereo not drawn) [M E^′12]	FALSE

Query compound follows.
Enquiry: I'd appreciate it if you could check whether CCCCCCCCCCCCCCCCOP(=O)(OCCCCCCCCCCCC)OCC[N+](C)(C)C (stereo not drawn) [Compound M12] has H120 (hydrolysis rate after a 120-h incubation period) smaller than 2%.
Return: TRUE
